Origin of measurements: PubChem BioAssay (NCI)

# Test system: UACC-257 melanoma
# assay: NCI tumour cell line growth inhibition, 48 h
Each entry below carries its recorded TGI.

compound	targetOrSystem	TGI
CCOC(=O)C1=[N+]([O-])OC2=C(O)CCCC21 (stereo not given)	UACC-257 melanoma	> 100 µM
COc1ccc2sc3c(NCCCN(C)C)nc4ccccc4c3c(=O)c2c1	UACC-257 melanoma	3.49 µM
COc1ccc(-c2nc3sc4c(c3c(=O)[nH]2)CCCCCC4)cc1	UACC-257 melanoma	> 33.2 µM
CC(=O)N1C(Nc2ccccn2)CCN1c1ccccc1 (stereo not given)	UACC-257 melanoma	> 10 µM
Cn1c(=O)c2c(nc(-n3nc(-c4ccc(Cl)cc4)cc3N)n2C)n(C)c1=O	UACC-257 melanoma	> 100 µM
O=C(/C=C/c1ccccc1)/C=N/N1C(=S)N(c2ccccc2)C(=Nc2ccccc2)C1=Nc1ccccc1	UACC-257 melanoma	> 100 µM
CCN(CC)CCC(=O)c1ccc(Oc2ccc(Cl)cc2)cc1	UACC-257 melanoma	28.6 µM
COc1ccc(-c2nn3c(-c4cc(F)c(Cl)cc4Cl)nnc3s2)cc1	UACC-257 melanoma	> 100 µM

Input line: Checklist item: TGI tested on UACC-257 melanoma, entry COc1cc(C(=O)C/C(CCCC(=O)Nc2ccccc2[N+](=O)[O-])=N/NC(=O)c2cc3ccccc3cc2O)ccc1O , value?
Output line: 82 µM

Input line: Checklist item: TGI tested on UACC-257 melanoma, entry CN(C)CCCNC(CC#N)CCC#N (stereo not given) , value?
Output line: > 10 µM

Input line: Checklist item: TGI tested on UACC-257 melanoma, entry O=C1CC(c2ccc(O)cc2)C2(O1)C(=O)OC(C(O)CO)C2O (stereo not given) , value?
Output line: > 100 µM

Input line: Checklist item: TGI tested on UACC-257 melanoma, entry N#CC12C(=O)N3C(=NC(c4ccccc4)NC3c3ccccc3)C1(C#N)C(c1ccccc1)NC1=C2CCC1 (stereo not given) , value?
Output line: > 100 µM

Input line: Checklist item: TGI tested on UACC-257 melanoma, entry CC(=O)OCOC(=O)CN(CC(=O)OCOC(C)=O)Cc1cc2c(cc1OC(C)=O)Oc1cc(OC(C)=O)c(CN(CC(=O)OCOC(C)=O)CC(=O)OCOC(C)=O)cc1C21OC(=O)c2ccccc21 , value?
Output line: 1.27 µM
